ASSAY: Exposure in colon tissue and colon contents in TNBS studies
Format: in vivo, rat
SETTINGS: male, Sprague-Dawley, rat, colon tissue, po, 10 mg/kg/day, TNBS rats, 10 mg/kg/day oral, Study 2; LC-MS/MS, LLOQ=2.6 nM; read-out: Colon tissue concentration
READOUT_KIND: level at time molar (nM)
State just the number; it will be interpreted in nM.

According to the records, this compound `CC(=O)NCCCC[C@@H]1NC(=O)[C@H](Cc2c[nH]c3c(C)cccc23)NC(=O)[C@H]([C@@H](C)O)NC(=O)[C@H](CC(N)=O)NC(=O)[C@@H](NC(C)=O)C(C)(C)SSC(C)(C)[C@@H](C(=O)N[C@@H](Cc2ccc(OCCN)cc2)C(=O)N[C@@H](Cc2ccc3ccccc3c2)C(=O)NC2(C(=O)N[C@@H](CCC(=O)O)C(=O)N[C@@H](CC(N)=O)C(=O)N[C@@H](Cc3cccnc3)C(=O)N(C)CC(N)=O)CCOCC2)NC1=O` displays level at time molar of 1410

----------
ASSAY: Rat pharmacokinetic and tissue distribution study, oral dosing
SETTINGS: male, Sprague-Dawley, rat, in vivo, po, 10 mg/kg
READOUT_KIND: Tmax (h)
State just the number; it will be interpreted in h.

According to the records, this molecule `CC(=O)NCCCC[C@@H]1NC(=O)[C@H](Cc2c[nH]c3c(C)cccc23)NC(=O)[C@H]([C@@H](C)O)NC(=O)[C@H](CC(N)=O)NC(=O)[C@@H](NC(C)=O)C(C)(C)SSC(C)(C)[C@@H](C(=O)N[C@@H](Cc2ccc(OCCN)cc2)C(=O)N[C@@H](Cc2ccc3ccccc3c2)C(=O)NC2(C(=O)N[C@@H](CCC(=O)O)C(=O)N[C@@H](CC(N)=O)C(=O)N[C@@H](Cc3cccnc3)C(=O)N(C)CC(N)=O)CCOCC2)NC1=O` displays Tmax of 3

----------
ASSAY: Exposure in colon tissue and colon contents in TNBS studies
Format: in vivo, rat
SETTINGS: male, Sprague-Dawley, rat, colon content, po, 0.03 mg/kg/day, TNBS rats, 0.03 mg/kg/day oral, Study 2; LC-MS/MS, LLOQ=2.6 nM; read-out: Colon content concentration
READOUT_KIND: level at time molar (nM)
State just the number; it will be interpreted in nM.

According to the records, this molecule `CC(=O)NCCCC[C@@H]1NC(=O)[C@H](Cc2c[nH]c3c(C)cccc23)NC(=O)[C@H]([C@@H](C)O)NC(=O)[C@H](CC(N)=O)NC(=O)[C@@H](NC(C)=O)C(C)(C)SSC(C)(C)[C@@H](C(=O)N[C@@H](Cc2ccc(OCCN)cc2)C(=O)N[C@@H](Cc2ccc3ccccc3c2)C(=O)NC2(C(=O)N[C@@H](CCC(=O)O)C(=O)N[C@@H](CC(N)=O)C(=O)N[C@@H](Cc3cccnc3)C(=O)N(C)CC(N)=O)CCOCC2)NC1=O` displays level at time molar of 90.1

----------
ASSAY: Exposure in colon tissue and colon contents in TNBS studies
Assay type: in vivo, rat
SETTINGS: male, Sprague-Dawley, rat, colon content, po, 0.3 mg/kg/day, TNBS rats, 0.3 mg/kg/day oral, Study 1; LC-MS/MS, LLOQ=2.6 nM; read-out: Colon content concentration
Description: Rats were deprived of food for 24 h prior to induction of colitis by intrarectal installation of TNBS 48 mg/kg (Sigma Aldrich; Raleigh, NC) in 50% ethanol on Day 0. […] Additionally, the whole colon was excised, measured, and photographed, and then cut open to allow for collection of the contents, which were weighed and flash frozen. […] Colon weight/length ratio was calculated. Table S3. […] All samples were analyzed using an LC-MS/MS method (LLOQ=2.6 nM).
READOUT_KIND: level at time molar (nM)
State just the number; it will be interpreted in nM.

According to the records, this compound CC(=O)NCCCC[C@@H]1NC(=O)[C@H](Cc2c[nH]c3c(C)cccc23)NC(=O)[C@H]([C@@H](C)O)NC(=O)[C@H](CC(N)=O)NC(=O)[C@@H](NC(C)=O)C(C)(C)SSC(C)(C)[C@@H](C(=O)N[C@@H](Cc2ccc(OCCN)cc2)C(=O)N[C@@H](Cc2ccc3ccccc3c2)C(=O)NC2(C(=O)N[C@@H](CCC(=O)O)C(=O)N[C@@H](CC(N)=O)C(=O)N[C@@H](Cc3cccnc3)C(=O)N(C)CC(N)=O)CCOCC2)NC1=O [JNJ-77242113] displays level at time molar of 973
